target or system: Recombinant human BACE-1 (rhBACE-1) (Homo sapiens, UniProt P56817)
Construct: purchased R&D Systems #ES004 and #931-AS, respectively (so in the source)
Sequence (P56817 46-457 limits assumed): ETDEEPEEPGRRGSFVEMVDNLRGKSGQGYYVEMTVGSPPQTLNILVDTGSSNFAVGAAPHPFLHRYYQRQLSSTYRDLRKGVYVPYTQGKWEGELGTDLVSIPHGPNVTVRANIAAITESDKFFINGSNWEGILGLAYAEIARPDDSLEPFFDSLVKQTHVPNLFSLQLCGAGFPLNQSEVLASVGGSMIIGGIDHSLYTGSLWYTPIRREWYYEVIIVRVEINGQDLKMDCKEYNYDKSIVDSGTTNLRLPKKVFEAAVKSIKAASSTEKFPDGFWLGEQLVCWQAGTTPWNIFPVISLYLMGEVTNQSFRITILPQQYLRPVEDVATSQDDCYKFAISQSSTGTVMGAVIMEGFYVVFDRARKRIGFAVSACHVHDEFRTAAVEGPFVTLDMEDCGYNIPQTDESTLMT
assay protocol: Proteolytic cleavage of APP (glyco)peptides by BACE-1, RP-HPLC peak integration
Format: biochemical
measurement conditions: 100 μM substrate, 50 nM rhBACE-1, 0.1 M sodium acetate pH 4.0, 24 h, 37°C, dark; RP-HPLC peak integration at 214 nm, averaged from two injections, SD <5%
recorded metric: BACE-1 activity, Cleaved (%)
Dear colleague, please send the value followed by its unit.

I have this compound here, `CC[C@H](C)[C@H](NC(=O)[C@@H](N)CCC(=O)O)C(=O)N[C@@H](CO[C@H]1O[C@H](CO)[C@H](O)[C@H](O)[C@H]1NC(C)=O)C(=O)N[C@@H](CCC(=O)O)C(=O)N[C@H](C(=O)N[C@@H](CCCCN)C(=O)N[C@@H](CCSC)C(=O)N[C@@H](CC(=O)O)C(=O)N[C@@H](C)C(=O)N[C@@H](CCC(=O)O)C(=O)N[C@@H](Cc1ccccc1)C(=O)N[C@@H](CCCNC(=N)N)C(=O)N[C@@H](Cc1c[nH]cn1)C(=O)N[C@@H](CC(=O)O)C(=O)N[C@@H](CO)C(=O)NCC(N)=O)C(C)C` , and I need its recorded BACE-1 activity, Cleaved (%).
1.40%

----------
This section presents molecules with their documented BACE-1 activity, Cleaved (%) values.
target or system: Recombinant human BACE-1 (rhBACE-1) (Homo sapiens, UniProt P56817)
Construct: purchased R&D Systems #ES004 and #931-AS, respectively (so in the source)
assay protocol: Proteolytic cleavage of APP (glyco)peptides by BACE-1, RP-HPLC peak integration
Format: biochemical
measurement conditions: 100 μM substrate, 50 nM rhBACE-1, 0.1 M sodium acetate pH 4.0, 24 h, 37°C, dark; RP-HPLC peak integration at 214 nm, averaged from two injections, SD <5%
Field format: number, assumed %, no unit text.

Known results for molecules:
I have this molecule here, `CC[C@H](C)[C@H](NC(=O)[C@@H](N)CCC(=O)O)C(=O)N[C@@H](CO)C(=O)N[C@@H](CCC(=O)O)C(=O)N[C@H](C(=O)N[C@@H](CC(N)=O)C(=O)N[C@@H](CC(C)C)C(=O)N[C@@H](CC(=O)O)C(=O)N[C@@H](C)C(=O)N[C@@H](CCC(=O)O)C(=O)N[C@@H](Cc1ccccc1)C(=O)N[C@@H](CCCNC(=N)N)C(=O)N[C@@H](Cc1c[nH]cn1)C(=O)N[C@@H](CC(=O)O)C(=O)N[C@@H](CO)C(=O)NCC(N)=O)C(C)C` , and I need its recorded BACE-1 activity, Cleaved (%).
96.2

I have this molecule here, `CC[C@H](C)[C@H](NC(=O)[C@@H](N)CCC(=O)O)C(=O)N[C@@H](CO[C@H]1O[C@H](CO)[C@H](O)[C@H](O)[C@H]1NC(C)=O)C(=O)N[C@@H](CCC(=O)O)C(=O)N[C@H](C(=O)N[C@@H](CC(N)=O)C(=O)N[C@@H](CC(C)C)C(=O)N[C@@H](CC(=O)O)C(=O)N[C@@H](C)C(=O)N[C@@H](CCC(=O)O)C(=O)N[C@@H](Cc1ccccc1)C(=O)N[C@@H](CCCNC(=N)N)C(=O)N[C@@H](Cc1c[nH]cn1)C(=O)N[C@@H](CC(=O)O)C(=O)N[C@@H](CO)C(=O)NCC(N)=O)C(C)C` , and I need its recorded BACE-1 activity, Cleaved (%).
93.0

Here is the next item to consider.
I have this molecule here, `CC[C@H](C)[C@H](NC(=O)[C@@H](N)CCC(=O)O)C(=O)N[C@@H](CO)C(=O)N[C@@H](CCC(=O)O)C(=O)N[C@H](C(=O)N[C@@H](CCCCN)C(=O)N[C@@H](CCSC)C(=O)N[C@@H](CC(=O)O)C(=O)N[C@@H](C)C(=O)N[C@@H](CCC(=O)O)C(=O)N[C@@H](Cc1ccccc1)C(=O)N[C@@H](CCCNC(=N)N)C(=O)N[C@@H](Cc1c[nH]cn1)C(=O)N[C@@H](CC(=O)O)C(=O)N[C@@H](CO)C(=O)NCC(N)=O)C(C)C` , and I need its recorded BACE-1 activity, Cleaved (%).
4.48
